- System: 786-0 renal
- EXPERIMENT_DESCRIPTION: NCI tumour cell line growth inhibition, 48 h; in the data active = GI50 below about 0.43 µM; inactive = the rest
Returns: one label drawn from active, inactive

Inquiry: Record lookup: outcome of this test for COc1ccc(C(=O)c2ccccc2)c(O)c1 ?
Reply text: inactive

Inquiry: Record lookup: outcome of this test for COC(=O)c1c(C(=O)O)c(-c2ccccc2)c(-c2ccccc2)c(-c2ccccc2)c1-c1ccccc1 ?
Reply text: inactive

Inquiry: Record lookup: outcome of this test for S=C(Nc1ccc(-c2nc3ccccc3s2)cc1)Nc1ccc(-c2nc3ccccc3s2)cc1 ?
Reply text: inactive

Inquiry: Record lookup: outcome of this test for Cc1nc(C(=O)OCc2ccccc2)cc(OCc2ccccc2)c1C ?
Reply text: inactive

Inquiry: Record lookup: outcome of this test for C[C@]12CCC3c4ccc(O)cc4CCC3C1CC[C@@H]2NC(=O)/C=C/c1ccc(O)c(O)c1 (stereo partly specified) ?
Reply text: inactive

Inquiry: Record lookup: outcome of this test for CN(CCOc1ccc(NS(C)(=O)=O)cc1)CCc1ccc(NS(C)(=O)=O)cc1 ?
Reply text: inactive

Inquiry: Record lookup: outcome of this test for CCOC(=O)/C=C/c1ccc([N+](=O)[O-])o1 ?
Reply text: inactive

Inquiry: Record lookup: outcome of this test for Fc1ccc(-c2ncn(C3CCNCC3)c2-c2ccnc(Oc3ccc(Cl)cc3)n2)cc1 ?
Reply text: inactive

Inquiry: Record lookup: outcome of this test for COc1ccc2c(CN3CCCC[C@H]3O)cc3cc4c(cc3c2c1)OCO4 ?
Reply text: inactive

Inquiry: Record lookup: outcome of this test for CSC(=S)NCc1cn(C)c2ccccc12 ?
Reply text: inactive

Inquiry: Record lookup: outcome of this test for O=C(OCC1=CC(=O)c2ccccc2C1=O)c1ccccc1 ?
Reply text: inactive

Inquiry: Record lookup: outcome of this test for CN(Cc1cnc2nc(N)nc(N)c2n1)c1c(Cl)cc(C(=O)NC(CCC(=O)O)C(=O)O)cc1Cl (stereo unspecified) ?
Reply text: active

Inquiry: Record lookup: outcome of this test for Cc1cc(C)c(-c2c(O)c(Br)c(-c3c(C)cc(C)c(Br)c3C)c(O)c2Br)c(C)c1Br ?
Reply text: inactive

Inquiry: Record lookup: outcome of this test for COc1cc(C2CC(c3ccc(Cl)cc3)=NN2C(C)=O)ccc1Oc1ccnc2cc(Cl)ccc12 (stereo unspecified) ?
Reply text: inactive

Inquiry: Record lookup: outcome of this test for CC(=O)c1nc(-c2ccc(C[C@@H](CNC(=O)CN(C)C)NC(=O)c3ccc(OC(C)C)c(Cl)c3)cc2)cn1C ?
Reply text: active

Inquiry: Record lookup: outcome of this test for CCN(CC)c1ccc(/C=N/N=C(N)N)cc1 ?
Reply text: inactive

====

- System: SNB-75 CNS
- EXPERIMENT_DESCRIPTION: NCI tumour cell line growth inhibition, 48 h; in the data active = GI50 below about 0.43 µM; inactive = the rest
Returns: one label drawn from True = active, False = inactive

Inquiry: Record lookup: outcome of this test for Fc1ccc(-c2ncn(C3CCNCC3)c2-c2ccnc(Oc3ccc(Cl)cc3)n2)cc1 ?
Reply text: False

Inquiry: Record lookup: outcome of this test for Cc1cc(C)c(-c2c(O)c(Br)c(-c3c(C)cc(C)c(Br)c3C)c(O)c2Br)c(C)c1Br ?
Reply text: False

Inquiry: Record lookup: outcome of this test for CCCC(=O)Nc1cc(/C=C/C(=O)N2C[C@@H]3C[C@]34C2=CC(=O)c2[nH]cc(C)c24)n(C)c1 ?
Reply text: True

Inquiry: Record lookup: outcome of this test for COc1ccc(C(=O)c2ccccc2)c(O)c1 ?
Reply text: False

Inquiry: Record lookup: outcome of this test for N.N.N.N.O=S([O-])[O-].[Co+3].[N-]=[N+]=[N-] ?
Reply text: False

Inquiry: Record lookup: outcome of this test for COC1CCC(OC)C(c2nc3sccn3c2/C=N/N=C(N)N)C1 (stereo unspecified) ?
Reply text: False

Inquiry: Record lookup: outcome of this test for CC(=O)c1nc(-c2ccc(C[C@@H](CNC(=O)CN(C)C)NC(=O)c3ccc(OC(C)C)c(Cl)c3)cc2)cn1C ?
Reply text: True

Inquiry: Record lookup: outcome of this test for CCCCS(=O)(=O)c1cc(Nc2ccc(O)c3c2C(=O)c2ccccc2C3=O)ccc1C ?
Reply text: False

Inquiry: Record lookup: outcome of this test for O=C(OCC1=CC(=O)c2ccccc2C1=O)c1ccccc1 ?
Reply text: False

Inquiry: Record lookup: outcome of this test for COc1cc(C=NCC(=O)CSC(c2ccccc2)c2ccccc2)ccc1O ?
Reply text: False

Inquiry: Record lookup: outcome of this test for CCN(CC)c1ccc(/C=N/N=C(N)N)cc1 ?
Reply text: False
